Data credit: patent US9346815B2

# Test system: JAK1-dependent STAT6 phosphorylation downstream of IL-13 stimulation in TF-1 human erythroleukemia cells
# TEST METHOD NOTES: JAK1 pathway assay in TF-1 cells (IL-13-pSTAT6, MSD)
# Format: cell-based
# RUN CONDITIONS: Homo sapiens, TF-1, TF-1 cells, read-out: IL13-pSTAT6 EC50_TF-1
Counter-ions that a name gives are not always drawn.
READOUT NAME: pEC50
Give bare numbers, as −log10 of the molar value.

Reference set (4 entries):
{"COMPOUND": "CN(CCc1ccccn1)C1CCN(C(=O)Cn2cc(NC(=O)c3cnn4cccnc34)c(-c3cc(Cl)ccc3OC(F)F)n2)CC1 [Example 86]", "READOUT NAME": "pEC50", "MEAS VALUE": 7.60}
{"COMPOUND": "O=C(Nc1cn(CC(=O)N2C[C@H]3CN(CC4(O)CCCCC4)C[C@H]3C2)nc1-c1cc(Cl)ccc1OC(F)F)c1cnn2cccnc12 [Example 46]", "READOUT NAME": "pEC50", "MEAS VALUE": 8.09}
{"COMPOUND": "Nc1nn2cccnc2c1C(=O)Nc1cn(CC(=O)N2CCNCC2)nc1-c1cc(Cl)ccc1OC(F)F [Example 249]", "READOUT NAME": "pEC50", "MEAS VALUE": 7.49}
{"COMPOUND": "CC(=O)NCCCN1CCC(n2cc(NC(=O)c3cnn4cccnc34)c(-c3cc(Cl)ccc3OC(F)F)n2)CC1 [Example 142, hydrochloride]", "READOUT NAME": "pEC50", "MEAS VALUE": 7.44}

Turning now to a further record.
Ask: Entry O=C(Nc1cn(CC(=O)N2CCC[C@H]2C(O)CO)nc1-c1cc(Cl)ccc1OC(F)F)c1cnn2cccnc12 (some centres unmarked) [Example 267] : reported pEC50 = ?
Result: 7.45

----------
# Tested on: JAK1-dependent STAT6 phosphorylation downstream of IL-13 stimulation in TF-1 human erythroleukemia cells
# TEST METHOD NOTES: JAK1 pathway assay in TF-1 cells (IL-13-pSTAT6, MSD)
# Type: cell-based
# RUN CONDITIONS: Homo sapiens, TF-1, TF-1 cells, read-out: IL13-pSTAT6 EC50_TF-1
For each record, write down the corresponding EC50.
Give bare numbers, in nM.

{"SMILES STRING": "NC(=O)CCCN1CCC(n2cc(NC(=O)c3cnn4cccnc34)c(-c3cc(Cl)ccc3OC(F)F)n2)CC1", "UNIT SYMBOL": "nM", "EC50": 11.4}
{"SMILES STRING": "CN(C)CC1CCN(C(=O)Cn2cc(NC(=O)c3cnn4cccnc34)c(-c3cc(Cl)ccc3OC(F)F)n2)CC1", "UNIT SYMBOL": "nM", "EC50": 16.1}

Ask: Entry Nc1nn2cccnc2c1C(=O)Nc1cn([C@H]2CCNC2)nc1-c1cc(Cl)ccc1OC(F)F : reported EC50 = ?
Result: 12.3

----------
# SYSTEM NAME: isolated recombinant JAK2 kinase domain (Homo sapiens (Human), UniProt O60674)
# Sequence (O60674 849-1124): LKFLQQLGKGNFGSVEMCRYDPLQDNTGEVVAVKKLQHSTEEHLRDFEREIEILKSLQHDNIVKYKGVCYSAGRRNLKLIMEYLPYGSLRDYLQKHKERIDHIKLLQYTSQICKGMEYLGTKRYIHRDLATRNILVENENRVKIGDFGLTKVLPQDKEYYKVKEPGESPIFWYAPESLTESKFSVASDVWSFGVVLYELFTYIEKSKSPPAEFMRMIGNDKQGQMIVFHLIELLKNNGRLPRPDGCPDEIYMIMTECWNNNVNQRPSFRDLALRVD
# TEST METHOD NOTES: JAK2 enzyme assay (Caliper LabChip, peptide phosphorylation)
# RUN CONDITIONS: 25 μM ATP
READOUT NAME: Ki (nM)
One number for each entry, in nM.

Reference set (2 entries):
{"COMPOUND": "CN(CCC1CCCCC1)C1CCN(C(=O)Cn2cc(NC(=O)c3cnn4cccnc34)c(-c3cc(Cl)ccc3OC(F)F)n2)CC1 [Example 101]", "UNIT SYMBOL": "nM", "MEAS VALUE": 1.77}
{"COMPOUND": "CN(C)C(=O)CN1CCN(C(=O)Cn2cc(NC(=O)c3cnn4cccnc34)c(-c3cc(Cl)ccc3OC(F)F)n2)CC1 [Example 325]", "UNIT SYMBOL": "nM", "MEAS VALUE": 1.03}

Ask: Entry CN(CCc1ccccc1)C1CCN(C(=O)Cn2cc(NC(=O)c3cnn4cccnc34)c(-c3cc(Cl)ccc3OC(F)F)n2)CC1 [Example 85] : reported Ki = ?
Result: 1.66

----------
# Test system: JAK1-dependent STAT6 phosphorylation downstream of IL-13 stimulation in BEAS-2B human bronchial epithelial cells
# TEST METHOD NOTES: JAK1 pathway assay in BEAS-2B cells (IL-13-pSTAT6, MSD)
# Assay type: cell-based
# RUN CONDITIONS: read-out: IL13-pSTAT6 EC50 (uM)_BEAS-2B
READOUT NAME: EC50 (µM)
Give bare numbers, in µM.

{"COMPOUND": "CC1(N2CCOCC2)CCN(C(=O)Cn2cc(NC(=O)c3cnn4cccnc34)c(-c3cc(Cl)ccc3OC(F)F)n2)CC1 [Example 410]", "READOUT NAME": "EC50", "MEAS VALUE": 0.0183}

Look at each compound and report its EC50.
1. CN(C)C(=O)CN1CCN(CC2CCN(C(=O)Cn3cc(NC(=O)c4cnn5cccnc45)c(-c4cc(Cl)ccc4OC(F)F)n3)CC2)CC1 [Example 427]
2. CN1CCN(C2CCN(C(=O)Cn3cc(NC(=O)c4cnn5cccnc45)c(-c4cc(Cl)ccc4OC(F)F)n3)CC2)CC1 [Example 349]
3. CN(CC1(C#N)CCCCC1)C1CCN(C(=O)C2CCN(c3nc(-c4cc(Cl)ccc4OC(F)F)c(NC(=O)c4cnn5cccnc45)s3)CC2)CC1 [Example 204]
4. O=C(Nc1cn(CC(=O)N2CCC(O)CC2)nc1-c1cc(Cl)ccc1OC(F)F)c1cnn2cccnc12 [Example 278]
5. O=C(Nc1cn(CC(=O)N2CCC(N3CCOCC3)CC2)nc1-c1cc(Cl)ccc1OC(F)F)c1cnn2cccnc12 [Example 393]

Result:
[0.0224, 0.0155, 0.172, 0.005, 0.0115]

Look at each compound and report its EC50.
1. O=C(Nc1cn(CCNCc2ccccn2)nc1-c1cc(Cl)ccc1OC(F)F)c1cnn2cccnc12 [Example 314]
2. O=C(Nc1cn(CC(O)CN2CCOCC2)nc1-c1cc(Cl)ccc1OC(F)F)c1cnn2cccnc12 (centres unmarked) [Example 403]

Result:
0.0995
0.0283

----------
For each record, write down the corresponding Ki.
# SYSTEM NAME: isolated recombinant JAK2 kinase domain (Homo sapiens (Human))
# TEST METHOD NOTES: JAK2 enzyme assay (Caliper LabChip, peptide phosphorylation)
# RUN CONDITIONS: 25 μM ATP
Give bare numbers, in nM.

{"COMPOUND": "CN(C)CC(O)Cn1cc(NC(=O)c2cnn3cccnc23)c(-c2cc(Cl)ccc2OC(F)F)n1 (centres unmarked)", "Ki / nM": 0.61}
{"COMPOUND": "Nc1nn2cccnc2c1C(=O)Nc1cn(CC(=O)N2CCN(CC3CC3)CC2)nc1-c1cc(Cl)ccc1OC(F)F", "Ki / nM": 0.39}
{"COMPOUND": "CN1C[C@H]2CCN(C(=O)Cn3cc(NC(=O)c4cnn5cccnc45)c(-c4cc(Cl)ccc4OC(F)F)n3)C[C@H]2C1", "Ki / nM": 1.61}
{"COMPOUND": "CCOC(=O)N1CCC(CN2C[C@@H]3CN(C(=O)Cn4cc(NC(=O)c5cnn6cccnc56)c(-c5cc(Cl)ccc5OC(F)F)n4)C[C@@H]3C2)CC1", "Ki / nM": 0.81}
{"COMPOUND": "CN1CC[C@H]2[C@H](CCN2C(=O)Cn2cc(NC(=O)c3cnn4cccnc34)c(-c3cc(Cl)ccc3OC(F)F)n2)C1", "Ki / nM": 1.85}
{"COMPOUND": "O=C(O)CNC1CCN(CCn2cc(NC(=O)c3cnn4cccnc34)c(-c3cc(Cl)ccc3OC(F)F)n2)CC1", "Ki / nM": 0.73}
{"COMPOUND": "CN(Cc1ccc(Cl)cc1)C1CCN(C(=O)Cn2cc(NC(=O)c3cnn4cccnc34)c(-c3cc(Cl)ccc3OC(F)F)n2)CC1", "Ki / nM": 1.8}

Ask: Entry CC1(CN(CCC(F)(F)F)C2CCN(C(=O)Cn3cc(NC(=O)c4cnn5cccnc45)c(-c4cc(Cl)ccc4OC(F)F)n3)CC2)COC1 : reported Ki = ?
Result: 1.13

----------
# Test system: JAK1-dependent STAT6 phosphorylation downstream of IL-13 stimulation in TF-1 human erythroleukemia cells
# TEST METHOD NOTES: JAK1 pathway assay in TF-1 cells (IL-13-pSTAT6, MSD)
# Type: cell-based
# RUN CONDITIONS: Homo sapiens, TF-1, TF-1 cells, read-out: IL13-pSTAT6 EC50_TF-1
For each record, write down the corresponding EC50.
Give bare numbers, in nM.

Reference set (2 entries):
{"SMILES STRING": "O=C(Nc1cn(CC(=O)N2CCC3(CNC3)C2)nc1-c1cc(Cl)ccc1OC(F)F)c1cnn2cccnc12", "UNIT SYMBOL": "nM", "EC50": 1030}
{"SMILES STRING": "CN(C)C1CCN(C(=O)Cn2cc(NC(=O)c3c(N)nn4cccnc34)c(-c3cc(Cl)ccc3OC(F)F)n2)CC1", "UNIT SYMBOL": "nM", "EC50": 40.2}

Turning now to a further record.
Ask: Entry COc1ccc(CCN(C)C2CCN(C(=O)Cn3cc(NC(=O)c4cnn5cccnc45)c(-c4cc(Cl)ccc4OC(F)F)n3)CC2)cc1 : reported EC50 = ?
Result: 17.3
